Data origin, for the record: ChEMBL document CHEMBL1135372

EXPERIMENTAL_TARGET: Delta-type opioid receptor (Homo sapiens)
Sequence (P41143 whole entry): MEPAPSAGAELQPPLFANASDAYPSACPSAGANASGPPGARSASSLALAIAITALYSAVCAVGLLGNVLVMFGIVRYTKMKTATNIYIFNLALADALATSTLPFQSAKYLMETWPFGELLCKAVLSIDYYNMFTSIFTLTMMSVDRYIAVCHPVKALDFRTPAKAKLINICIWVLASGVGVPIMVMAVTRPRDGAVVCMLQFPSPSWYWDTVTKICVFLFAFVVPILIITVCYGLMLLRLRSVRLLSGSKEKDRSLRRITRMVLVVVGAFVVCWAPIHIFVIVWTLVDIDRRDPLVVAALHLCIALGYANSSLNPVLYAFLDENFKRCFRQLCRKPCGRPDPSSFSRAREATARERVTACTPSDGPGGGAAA
MEASUREMENT_DESCRIPTION: Binding affinity towards delta opioid receptor by the displacement of [125I]deltorphin
IC50 values for the compounds below.
RECORDED_ENDPOINT: IC50

COc1ccccc1-c1cccn(C(CN2CCCC2)c2ccccc2)c1=O (configuration not stated): > 10 µM
COc1ccc(OC)c(-c2cccn(C(CN3CCCC3)c3ccccc3)c2=O)c1 (configuration not stated): > 10 µM
Cc1cccc(-c2cccn(C(CN3CCCC3)c3ccccc3)c2=O)c1 (configuration not stated): 0.639 µM
O=c1c(-c2ccc(OC(F)(F)F)cc2)cccn1C(CN1CCCC1)c1ccccc1 (configuration not stated): > 10 µM
COc1ccc(-c2cccn(C(CN3CCCC3)c3ccccc3)c2=O)cc1 (configuration not stated): 5.21 µM
O=c1c(-c2ccc(C(F)(F)F)cc2)cccn1C(CN1CCCC1)c1ccccc1 (configuration not stated): > 10 µM
O=c1c(-c2ccc(Cl)c(Cl)c2)cccn1C(CN1CCCC1)c1ccccc1 (configuration not stated): > 10 µM
